# Tested on: A2780
# test_name: Antiproliferative activity against human A2780 cells
# Format: functional, cell-based
# note: exactly 200 nM is not below, so it is F; use T for IC50 strictly under it

[[record]]
compound = "CO[C@H]1[C@@H](O[C@@H]2O[C@H](CO)[C@@H](O)[C@H](O)[C@H]2O)[C@@H](C)O[C@@H](O[C@H]2CC[C@@]3(C=O)[C@@H](CC[C@@H]4[C@@H]3CC[C@]3(C)[C@@H](C5=CC(=O)OC5)CC[C@]43O)C2)[C@@H]1OC(C)=O [BOIVINIDE F]"
class = "F"

[[record]]
compound = "CO[C@H]1C[C@H](O[C@H]2CC[C@@]3(C=O)[C@@H](CC[C@@H]4[C@@H]3CC[C@]3(C)[C@@H](C5=CC(=O)OC5)CC[C@]43O)C2)O[C@H](C)[C@@H]1O[C@@H]1O[C@H](CO)[C@@H](O)[C@H](O)[C@H]1O [BOIVINIDE B]"
class = "F"

[[record]]
compound = "C[C@H]1O[C@@H](O[C@H]2CC[C@@]3(C=O)[C@@H](CC[C@@H]4[C@@H]3CC[C@]3(C)[C@@H](C5=CC(=O)OC5)CC[C@]43O)C2)C[C@H](O)[C@H]1O[C@@H]1O[C@H](CO)[C@@H](O)[C@H](O)[C@H]1O [BOIVINIDE D]"
class = "F"

[[record]]
compound = "CO[C@H]1C[C@H](O[C@H]2CC[C@@]3(C=O)[C@@H](CC[C@@H]4[C@@H]3CC[C@]3(C)[C@H](C5=CC(=O)OC5)CC[C@]43O)C2)O[C@H](C)[C@@H]1O"
class = "F"

[[record]]
compound = "CO[C@H]1[C@@H](O)[C@H](O[C@H]2CC[C@@]3(C)[C@@H](CC[C@@H]4[C@@H]3CC[C@]3(C)[C@@H](C5=CC(=O)OC5)CC[C@]43O)C2)O[C@@H](C)[C@@H]1O[C@@H]1O[C@H](CO)[C@@H](O)[C@H](O)[C@H]1O"
class = "T"

[[record]]
compound = "CO[C@H]1C[C@H](O[C@H]2CC[C@@]3(C=O)[C@@H](CC[C@@H]4[C@@H]3CC[C@]3(C)[C@H](C5=CC(=O)OC5)CC[C@]43O)C2)O[C@H](C)[C@@H]1O[C@@H]1O[C@H](CO)[C@@H](O)[C@H](O)[C@H]1O [BOIVINIDE C]"
class = "F"

[[record]]
compound = "C[C@H]1[C@@H](O[C@H]2CC[C@@]3(C)[C@@H](CC[C@@H]4[C@@H]3CC[C@]3(C)[C@@H](C5=CC(=O)OC5)CC[C@]43O)C2)O[C@@H](C)[C@@H](O)[C@H]1O"
class = "T"

[[record]]
compound = "CO[C@@H]1[C@@H](O)[C@H](O[C@H]2CC[C@@]3(C=O)[C@@H](CC[C@@H]4[C@@H]3CC[C@]3(C)[C@@H](C5=CC(=O)OC5)CC[C@]43O)C2)O[C@H](C)[C@@H]1O[C@@H]1O[C@H](CO)[C@@H](O)[C@H](O)[C@H]1O [BOIVINIDE A]"
class = "T"

[[record]]
compound = "C[C@H]1O[C@@H](O[C@H]2CC[C@@]3(C=O)[C@@H](CC[C@@H]4[C@@H]3CC[C@]3(C)[C@@H](C5=CC(=O)OC5)CC[C@]43O)C2)C[C@H](O)[C@H]1O"
class = "T"


Data provenance is ChEMBL document CHEMBL1141348.
